# Tested on: Plasmodium berghei
# method.description: Screen against P. berghei liver stage (PbLuc), transformed with Luciferase, at 10uM
# Format: functional, HepG2
# condition.notes: tested at 10 uM
The campaign covered roughly 69,000 compounds. About 8,600 (12%) showed an effect of 50% or more. The entries come from a sample that favours strong results as a whole.
Kindly supply the reported INHIBITION values for the records listed here.
Write the number in % without appending the unit.

Qu. Please look up its INHIBITION: COc1ccc(N(C(=O)c2cnc(C)cn2)C(C)C)cc1F
Ans. 62.4

Qu. Please look up its INHIBITION: CN1CCNCC(Cc2cnc3ccccc3c2)C1 (configuration not stated)
Ans. 52.7

Qu. Please look up its INHIBITION: COCC(c1cccc(C(F)(F)F)c1)N(C)C(=O)c1ccccn1 (configuration not stated)
Ans. -5.285

Qu. Please look up its INHIBITION: Cc1noc(C2CN(S(=O)(=O)C3CC3)Cc3ccnn3C2)n1 (configuration not stated)
Ans. 34.6

Qu. Please look up its INHIBITION: c1ccc2ncc(CC3CCNC3)cc2c1 (configuration not stated)
Ans. 35

Qu. Please look up its INHIBITION: CCc1nnc(CS(=O)(=O)c2ccc(C)cc2)n1C
Ans. 35.1

Qu. Please look up its INHIBITION: COc1ccc(C(=O)N(c2ccc(OC)c(F)c2)C(C)C)cn1
Ans. 75.2

Qu. Please look up its INHIBITION: COc1ccc(N(C(=O)Cc2ccc(C)nc2)C(C)C)cc1F
Ans. -75

Qu. Please look up its INHIBITION: COC(=O)c1cnc(C(=O)N(c2ccc(OC)c(F)c2)C(C)C)cn1
Ans. -54.5

Qu. Please look up its INHIBITION: COc1ccc(N(C(=O)c2ccc(C)nc2)C(C)C)cc1F
Ans. 38

Qu. Please look up its INHIBITION: O=S(=O)(c1cccnc1)N1C[C@H]2CCC[C@@]2(COc2ccccn2)C1
Ans. 38.5

Qu. Please look up its INHIBITION: CCC1c2ccsc2CCN1C(=O)NCCc1ccccn1 (configuration not stated)
Ans. 0
